# Tested on: D54 LucT luciferase reporter counterscreen, luminescence, 24 h
# assay_method_text: reporter signal increase, D54 LucT cells – cell-based, luminescence, cherry pick, counter-screen for N-linked glycosylation inhibitor project, dose response (AID 624404)
Inconclusive results are not listed.
endpoint: AC35

- molecule: "COc1ccc([C@@H]2[C@@H]3C(=O)N(C(C)(C)C)C(=O)[C@@H]3[C@]3(Cc4ccccc4)C(=O)N(c4cccc(Cl)c4)C(=O)N23)cc1"
  measured_on: "D54 LucT luciferase reporter counterscreen, luminescence, 24 h"
  endpoint: "AC35"
  reading: "2.18 µM"
- molecule: "O=C(/C=C/c1ccco1)Nc1nnc(-c2ccco2)s1"
  measured_on: "D54 LucT luciferase reporter counterscreen, luminescence, 24 h"
  endpoint: "AC35"
  reading: "0.204 µM"
- molecule: "O=c1[nH]c(-c2ccccc2)nc2sc(-c3ccccc3)cc12"
  measured_on: "D54 LucT luciferase reporter counterscreen, luminescence, 24 h"
  endpoint: "AC35"
  reading: "0.188 µM"
- molecule: "Cc1cc(C)nc(/N=C(\\N)Nc2ccc(CC(=O)OC(C)C)cc2)n1"
  measured_on: "D54 LucT luciferase reporter counterscreen, luminescence, 24 h"
  endpoint: "AC35"
  reading: "1.68 µM"
- molecule: "CC1CN(C(=O)c2cc(-c3ccncc3)nc3ccccc23)CC(C)O1 (stereo unspecified)"
  measured_on: "D54 LucT luciferase reporter counterscreen, luminescence, 24 h"
  endpoint: "AC35"
  reading: "1.72 µM"
- molecule: "CC(=O)Nc1sc(NC(=O)c2ccccc2)nc1-c1cccs1"
  measured_on: "D54 LucT luciferase reporter counterscreen, luminescence, 24 h"
  endpoint: "AC35"
  reading: "8.34 µM"
- molecule: "Cn1c(=O)n(C)c2cc(S(=O)(=O)N3CCCc4ccccc43)ccc21"
  measured_on: "D54 LucT luciferase reporter counterscreen, luminescence, 24 h"
  endpoint: "AC35"
  reading: "10.2 µM"
- molecule: "Cc1ccnc(NC(=O)Nc2ccc3c(c2)N(C)C(=O)CS3)c1"
  measured_on: "D54 LucT luciferase reporter counterscreen, luminescence, 24 h"
  endpoint: "AC35"
  reading: "0.00868 µM"
- molecule: "O=C(N/N=C\\c1cn(-c2ccccc2)nc1-c1ccccc1)c1ccc(Br)o1"
  measured_on: "D54 LucT luciferase reporter counterscreen, luminescence, 24 h"
  endpoint: "AC35"
  reading: "0.957 µM"
- molecule: "O=C(Nc1ccccc1-c1ccccc1)C1CCCC1"
  measured_on: "D54 LucT luciferase reporter counterscreen, luminescence, 24 h"
  endpoint: "AC35"
  reading: "1.22 µM"
- molecule: "CCOC(=O)c1c(C)c(C(=O)Nc2ccc(N(C)C)cc2)c(C)n1CC"
  measured_on: "D54 LucT luciferase reporter counterscreen, luminescence, 24 h"
  endpoint: "AC35"
  reading: "3.56 µM"
- molecule: "Cc1cc(C)cc(-n2c3ccc(NC(=O)Cc4cccc5ccccc45)cc3c(=O)n2C)c1"
  measured_on: "D54 LucT luciferase reporter counterscreen, luminescence, 24 h"
  endpoint: "AC35"
  reading: "5.01 µM"
- molecule: "COc1ccc(S(=O)(=O)Nc2ccc3c(c2)n(C)c(=O)n3C)cc1OC"
  measured_on: "D54 LucT luciferase reporter counterscreen, luminescence, 24 h"
  endpoint: "AC35"
  reading: "0.104 µM"
- molecule: "COc1ccc2c(c1)[C@H]1[C@H](CO2)[C@H](c2ccccc2)[C@]2(C)C(=O)Nc3ccc(Cl)cc3C(=O)N12"
  measured_on: "D54 LucT luciferase reporter counterscreen, luminescence, 24 h"
  endpoint: "AC35"
  reading: "0.148 µM"
- molecule: "COc1ccc(Nc2cc(C)nc(-n3nc(C)cc3C)n2)cc1"
  measured_on: "D54 LucT luciferase reporter counterscreen, luminescence, 24 h"
  endpoint: "AC35"
  reading: "0.15 µM"
- molecule: "Cc1ccc(-n2nc(C)c(/C=N/NC(=O)c3cccs3)c2Cl)cc1"
  measured_on: "D54 LucT luciferase reporter counterscreen, luminescence, 24 h"
  endpoint: "AC35"
  reading: "0.0556 µM"
- molecule: "COc1cc2c(cc1OC)C(=O)N1[C@H]3c4cc(Cl)ccc4OC[C@@H]3[C@H](c3ccccc3)[C@]1(C)C(=O)N2"
  measured_on: "D54 LucT luciferase reporter counterscreen, luminescence, 24 h"
  endpoint: "AC35"
  reading: "0.449 µM"
- molecule: "CC(=O)Nc1cc(-c2cccc(C(=O)N(C)C)c2)cn2c(-c3cccc(C(=O)N(C)C)c3)cnc12"
  measured_on: "D54 LucT luciferase reporter counterscreen, luminescence, 24 h"
  endpoint: "AC35"
  reading: "1.74 µM"
- molecule: "Cc1ccc2c(c1)C(=O)N1[C@H]3c4cc(Cl)ccc4OC[C@@H]3[C@H](c3ccccc3)[C@]1(C)C(=O)N2"
  measured_on: "D54 LucT luciferase reporter counterscreen, luminescence, 24 h"
  endpoint: "AC35"
  reading: "0.65 µM"
- molecule: "COc1ccc(NC2=C(C)C(=O)CC2)cc1"
  measured_on: "D54 LucT luciferase reporter counterscreen, luminescence, 24 h"
  endpoint: "AC35"
  reading: "0.38 µM"
- molecule: "O=C(Nc1ccc(S(=O)(=O)N2CCOCC2)cc1)c1cc(-c2cc(Cl)ccc2O)n[nH]1"
  measured_on: "D54 LucT luciferase reporter counterscreen, luminescence, 24 h"
  endpoint: "AC35"
  reading: "1.37 µM"
- molecule: "Cc1ccc(NC2=NC3(CCCC3)N=C(N)N2)c(C)c1"
  measured_on: "D54 LucT luciferase reporter counterscreen, luminescence, 24 h"
  endpoint: "AC35"
  reading: "7.54 µM"
- molecule: "CC(C)[n+]1ccn(C2=C([O-])c3ccccc3C(=O)/C2=N\\S(=O)(=O)c2ccccc2)c1"
  measured_on: "D54 LucT luciferase reporter counterscreen, luminescence, 24 h"
  endpoint: "AC35"
  reading: "2.37 µM"
- molecule: "Cc1ccc2nsnc2c1NC(=O)c1ccc([N+](=O)[O-])o1"
  measured_on: "D54 LucT luciferase reporter counterscreen, luminescence, 24 h"
  endpoint: "AC35"
  reading: "0.571 µM"
- molecule: "Cc1cc2cc(CNC(=O)Cc3cccs3)ccc2n1C"
  measured_on: "D54 LucT luciferase reporter counterscreen, luminescence, 24 h"
  endpoint: "AC35"
  reading: "13.6 µM"
- molecule: "O=C(COc1ccccc1CNCc1ccccc1)Nc1ccccc1"
  measured_on: "D54 LucT luciferase reporter counterscreen, luminescence, 24 h"
  endpoint: "AC35"
  reading: "0.89 µM"
- molecule: "COc1cc(/C=N/NC(=O)c2ccc(-c3ccccc3)cc2)cc(OC)c1OC"
  measured_on: "D54 LucT luciferase reporter counterscreen, luminescence, 24 h"
  endpoint: "AC35"
  reading: "4.6 µM"
- molecule: "O=C(NCCCn1ccnc1)c1cc(-c2cccs2)on1"
  measured_on: "D54 LucT luciferase reporter counterscreen, luminescence, 24 h"
  endpoint: "AC35"
  reading: "2.02 µM"
- molecule: "CC[C@H](C)C(=O)O[C@H]1CCC=C2C=C[C@H](C)[C@H](CC[C@@H]3C[C@@H](O)CC(=O)O3)[C@H]21"
  measured_on: "D54 LucT luciferase reporter counterscreen, luminescence, 24 h"
  endpoint: "AC35"
  reading: "1.26 µM"
- molecule: "COc1cc(OC)cc(C(=O)NCC(=O)Nc2ccc(-c3ccccc3)cc2)c1"
  measured_on: "D54 LucT luciferase reporter counterscreen, luminescence, 24 h"
  endpoint: "AC35"
  reading: "0.501 µM"
- molecule: "OCCCN=c1cc(-c2ccccc2)oc2ccc(Cl)cc12"
  measured_on: "D54 LucT luciferase reporter counterscreen, luminescence, 24 h"
  endpoint: "AC35"
  reading: "0.971 µM"
- molecule: "COc1ccc(C(=O)c2sc(Nc3ccccc3)nc2N)cc1"
  measured_on: "D54 LucT luciferase reporter counterscreen, luminescence, 24 h"
  endpoint: "AC35"
  reading: "0.645 µM"
- molecule: "CC(C)/C=C1\\CC/C(=C\\c2cccnc2)C1=O"
  measured_on: "D54 LucT luciferase reporter counterscreen, luminescence, 24 h"
  endpoint: "AC35"
  reading: "9.16 µM"
- molecule: "COc1cccc(C(=O)Nc2sc3c(c2C#N)CCN(C(C)=O)C3)c1"
  measured_on: "D54 LucT luciferase reporter counterscreen, luminescence, 24 h"
  endpoint: "AC35"
  reading: "0.0635 µM"
- molecule: "Cc1ccc(S(=O)(=O)C(NC(=O)c2ccccc2)=C(Cl)Cl)cc1"
  measured_on: "D54 LucT luciferase reporter counterscreen, luminescence, 24 h"
  endpoint: "AC35"
  reading: "4.39 µM"
- molecule: "O=C(N/N=C/c1ccccc1)c1sccc1OCc1ccc(F)cc1"
  measured_on: "D54 LucT luciferase reporter counterscreen, luminescence, 24 h"
  endpoint: "AC35"
  reading: "3.06 µM"
- molecule: "CCOC(=O)c1c(C)nc2c(c1-c1cc(OC)c(OC)c(OC)c1)C(=O)c1ccccc1-2"
  measured_on: "D54 LucT luciferase reporter counterscreen, luminescence, 24 h"
  endpoint: "AC35"
  reading: "0.514 µM"
- molecule: "O=C(NC1CCCCCC1)c1c2c(nc3ccccc13)CCN(Cc1ccccc1)C2"
  measured_on: "D54 LucT luciferase reporter counterscreen, luminescence, 24 h"
  endpoint: "AC35"
  reading: "3.45 µM"
- molecule: "CC1CN(C(=O)c2cc(-c3ccc(Cl)s3)nc3ccccc23)CC(C)O1 (stereo unspecified)"
  measured_on: "D54 LucT luciferase reporter counterscreen, luminescence, 24 h"
  endpoint: "AC35"
  reading: "3.32 µM"
- molecule: "Cc1cc(=O)oc2cc(OCC(=O)N3c4ccccc4CC3C)ccc12 (stereo unspecified)"
  measured_on: "D54 LucT luciferase reporter counterscreen, luminescence, 24 h"
  endpoint: "AC35"
  reading: "1.37 µM"
- molecule: "COc1cc(-c2coc3c(C(=O)NCc4ccc(OC)c(OC)c4)cccc23)ccc1O"
  measured_on: "D54 LucT luciferase reporter counterscreen, luminescence, 24 h"
  endpoint: "AC35"
  reading: "2.8 µM"

From: PubChem BioAssay AID624404
